ASSAY_EXPLANATION: Luminescence activity of ZZ-fused KAZ mutants in crude enzyme solutions
Type: biochemical
CONDITION_DETAILS: Table 9; ZZ-fused (pCold-ZZ-P-); crude enzyme solution, 1 mM DTT; coelenterazine
PROPERTY_LABEL: Relative Luminescence Activity (Imax)
Answer with a bare number; do not write a unit.

Solved cases (2 shown):
Lookup: Fill in: Relative Luminescence Activity (Imax) of KAZ-A54I-Y138I: KAZ mutant with two amino acid substitutions A54I and Y138I, SEQ ID NO: 14 (protein) FTLADFVGDWQQTAGYNQDQVLEQGGLSSLFQALGVSVTPIQKVVLSGENGLKIDIHVIIPYEGLSGFQMGLIEMIFKVVYPVDDHHFKIILHYGTLVIDGVTPNMIDYFGRPYPGIAVFDGKQITVTGTLWNGNKIIDERLINPDGSLLFRVTINGVTGWRLCENILA is ___
Found: 23.1

Lookup: Fill in: Relative Luminescence Activity (Imax) of KAZ-Y138I: KAZ with single amino acid substitution Y138I, SEQ ID NO: 8 (protein) FTLADFVGDWQQTAGYNQDQVLEQGGLSSLFQALGVSVTPIQKVVLSGENGLKADIHVIIPYEGLSGFQMGLIEMIFKVVYPVDDHHFKIILHYGTLVIDGVTPNMIDYFGRPYPGIAVFDGKQITVTGTLWNGNKIIDERLINPDGSLLFRVTINGVTGWRLCENILA is ___
Found: 7.5

Moving on to another molecule below.
Lookup: Fill in: Relative Luminescence Activity (Imax) of KAZ-V44I-Y138I: KAZ mutant with two amino acid substitutions V44I and Y138I, SEQ ID NO: 12 (protein) FTLADFVGDWQQTAGYNQDQVLEQGGLSSLFQALGVSVTPIQKIVLSGENGLKADIHVIIPYEGLSGFQMGLIEMIFKVVYPVDDHHFKIILHYGTLVIDGVTPNMIDYFGRPYPGIAVFDGKQITVTGTLWNGNKIIDERLINPDGSLLFRVTINGVTGWRLCENILA is ___
Found: 17.1
